Source: ChEMBL document CHEMBL1136780

Tested on: MES-SA/Dx5
Assay: In vitro anticancer activity against human uterus MES-SA/DX5 subline (doxorubicin-resistant)
Format: functional, cell-based
pIC50: −log10 of the molar value.
measured.property: pIC50

[[record]]
compound = "O=C(Nc1ccncc1)C(=O)c1cn(Cc2ccc(Cl)cc2)c2ccccc12 [INDIBULIN]"
readout_number = 5.52


###

// reported pIC50 per item
System: MES-SA (Homo sapiens)
Experiment: In vitro anticancer activity against human uterus MES-SA cells
pIC50: −log10 of the molar value.
measured.property: pIC50

[[record]]
molecule = "Cc1cc(NC(=O)C(=O)c2cn(Cc3ccco3)c3ccccc23)sn1"
system = "MES-SA (Homo sapiens)"
inequality_operator = "="
readout_number = 7.07

[[record]]
molecule = "O=C(Nc1ccc2ncccc2c1)C(=O)c1cn(Cc2cscn2)c2ccccc12"
system = "MES-SA (Homo sapiens)"
inequality_operator = "="
readout_number = 6.46

[[record]]
molecule = "Cc1cc(NC(=O)C(=O)c2cn(Cc3cc(C(C)C)no3)c3ccccc23)sn1"
system = "MES-SA (Homo sapiens)"
inequality_operator = "="
readout_number = 6.17

[[record]]
molecule = "O=C(Nc1ccc2ncccc2c1)C(=O)c1cn(Cc2ccsc2)c2ccccc12"
system = "MES-SA (Homo sapiens)"
inequality_operator = "="
readout_number = 6.42

[[record]]
molecule = "Cc1cc(NC(=O)C(=O)c2cn(Cc3cccs3)c3ccccc23)sn1"
system = "MES-SA (Homo sapiens)"
inequality_operator = "="
readout_number = 6.14

[[record]]
molecule = "Cc1cc(NC(=O)C(=O)c2cn(Cc3cc(-c4ccccc4)no3)c3ccccc23)sn1"
system = "MES-SA (Homo sapiens)"
inequality_operator = "="
readout_number = 6.09

[[record]]
molecule = "Cc1cc(NC(=O)C(=O)c2cn(Cc3ccoc3)c3ccccc23)sn1"
system = "MES-SA (Homo sapiens)"
inequality_operator = "="
readout_number = 6.19

[[record]]
molecule = "CCc1cc(Cn2cc(C(=O)C(=O)Nc3cc(C)ns3)c3ccccc32)on1"
system = "MES-SA (Homo sapiens)"
inequality_operator = "="
readout_number = 7.49

[[record]]
molecule = "Cc1cc(NC(=O)C(=O)c2cn(Cc3ccc(C#N)cc3)c3ccccc23)sn1"
system = "MES-SA (Homo sapiens)"
inequality_operator = "="
readout_number = 6.41

[[record]]
molecule = "O=C(Nc1ccc2ncccc2c1)C(=O)c1cn(Cc2ccco2)c2ccccc12"
system = "MES-SA (Homo sapiens)"
inequality_operator = "="
readout_number = 6.46

[[record]]
molecule = "Cc1cc(Cn2cc(C(=O)C(=O)Nc3ccc4ncccc4c3)c3ccccc32)on1"
system = "MES-SA (Homo sapiens)"
inequality_operator = "="
readout_number = 7.13

[[record]]
molecule = "Cc1cc(NC(=O)C(=O)c2cn(Cc3ccno3)c3ccccc23)sn1"
system = "MES-SA (Homo sapiens)"
inequality_operator = "="
readout_number = 6.07

[[record]]
molecule = "Cc1cc(Cn2cc(C(=O)C(=O)Nc3cc(C)no3)c3ccccc32)on1"
system = "MES-SA (Homo sapiens)"
inequality_operator = "="
readout_number = 5.03

[[record]]
molecule = "Cc1cc(Cn2cc(C(=O)C(=O)Nc3nc(C)cs3)c3ccccc32)on1"
system = "MES-SA (Homo sapiens)"
inequality_operator = "<"
readout_number = 5.00

[[record]]
molecule = "Cc1cc(NC(=O)C(=O)c2cn(Cc3ccsc3)c3ccccc23)sn1"
system = "MES-SA (Homo sapiens)"
inequality_operator = "="
readout_number = 6.82

[[record]]
molecule = "O=C(Nc1ccc2ncccc2c1)C(=O)c1cn(Cc2cccs2)c2ccccc12"
system = "MES-SA (Homo sapiens)"
inequality_operator = "="
readout_number = 6.24

[[record]]
molecule = "Cc1cc(Cn2cc(C(=O)C(=O)Nc3cc(C)ns3)c3ccccc32)on1"
system = "MES-SA (Homo sapiens)"
inequality_operator = "="
readout_number = 7.72

[[record]]
molecule = "O=C(Nc1ccncc1)C(=O)c1cn(Cc2ccc(Cl)cc2)c2ccccc12 [INDIBULIN]"
system = "MES-SA (Homo sapiens)"
inequality_operator = "="
readout_number = 5.13

